Target: T1, ARHGEF11, O15085
T1 sequence (O15085 42-136, limits assumed, looked up): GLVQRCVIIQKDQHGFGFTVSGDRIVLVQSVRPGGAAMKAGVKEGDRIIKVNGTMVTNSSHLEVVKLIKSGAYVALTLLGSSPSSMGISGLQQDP
Experiment: holdup assay
Set-up: key: below the threshold = too weak to quantify, mostly under pKd 3.1 to 4
Conditions: plain residues with an end cap or a label only (N-terminal biotin on a linker: ado-ado)
Measurement Label: pKd

>>> assay_value("IQISELETNV [SLC1A7, O00341]")
3.94
>>> assay_value("HDDYFYHDEL [RCN2, Q14257]")
4
>>> assay_value("HLSTRQGTCV [ATRNL1, Q5VV63]")
4.02
>>> assay_value("NTALVESEDL [PALLS, Q8WX93;Q8WX93-1]")
4.05
>>> assay_value("STYCDYTIEI [FAM71C, Q8NEG0]")
4
>>> assay_value("FLVTEFNVML [DFNB31, Q9P202]")
3.95
>>> assay_value("EPAKETTTNV [SLC2A3, P11169]")
4
